test: Inhibition of porcine tubulin polymerization by UV/visible spectrophotometry; design: species or system Sus scrofa
reported.metric: pIC50
Just so you know, pIC50 here is -log10 of the concentration in molar units; reply with that number alone.

>>> endpoint_result("COc1cc2c(c(OC)c1OC)-c1ccc(OC)c(=O)cc1[C@@H](NC(C)=O)CC2")
5.41

# evaluate next
*Q* Report pIC50 for COc1ccc2c(c1O)COCc1cc(OC)c(OC)c(OC)c1-2 please.
*A* 6.00

----------
system: MCF7; assay: Antiproliferative activity against human MCF7 cells incubated for 72 hrs by sulforhodamine B assay; assay type: functional, cell-based; conditions: MCF7, 72 h
reported.metric: pIC50
Just so you know, pIC50 here is -log10 of the concentration in molar units; reply with that number alone.

Answered cases to consult:
>>> endpoint_result("COc1c(Cl)c2c(c(OC)c1OC)-c1ccc(SC)c(=O)cc1[C@@H](NC(=O)OCC(F)(F)F)CC2")
8.15
>>> endpoint_result("COc1c(I)c2c(c(OC)c1OC)-c1ccc(SC)c(=O)cc1[C@@H](NC(C)=O)CC2")
7.77
>>> endpoint_result("COc1c(Cl)c2c(c(OC)c1OC)-c1ccc(SC)c(=O)cc1[C@@H](NC(=O)c1ccccc1)CC2")
8.15

# evaluate next
*Q* Report pIC50 for COc1c(Cl)c2c(c(OC)c1OC)-c1ccc(SC)c(=O)cc1[C@@H](NC(=O)CCCCl)CC2 please.
*A* 8.00
